Origin of measurements: paper PMC7402526

Test system: granulocyte-macrophage progenitor (GMPs)
Test protocol: MLTA, GMPs: concentration-response and QSP model fit
Format: cell-based, human
Assay conditions: Homo sapiens, 144 h; dose 5 nM, 6 days, normalized to vehicle control; read-out: GMPs normalized cell count
Known activity at 0.005 µM of a selection of compounds
Write down the numeric answer in % and omit the unit.

>>> reported("CCN1CCN(Cc2ccc(Nc3ncc(F)c(-c4cc(F)c5nc(C)n(C(C)C)c5c4)n3)nc2)CC1")
93.6
>>> reported("CC(=O)O[C@@]12CO[C@@H]1C[C@H](O)[C@@]1(C)C(=O)[C@H](O)C3=C(C)[C@@H](OC(=O)[C@H](O)[C@@H](NC(=O)OC(C)(C)C)c4ccccc4)C[C@@](O)([C@@H](OC(=O)c4ccccc4)[C@H]21)C3(C)C")
15.2
>>> reported("CS(=O)(=O)N1CCN(Cc2cc3nc(-c4cccc5[nH]ncc45)nc(N4CCOCC4)c3s2)CC1")
92.7
>>> reported("CN(C)C(=O)c1cc2cnc(Nc3ccc(N4CCNCC4)cn3)nc2n1C1CCCC1")
103

Write down the reported activity at 0.005 µM of `CC(=O)O[C@H]1C(=O)[C@@]2(C)[C@H]([C@H](OC(=O)c3ccccc3)[C@]3(O)C[C@H](OC(=O)[C@H](O)[C@@H](NC(=O)c4ccccc4)c4ccccc4)C(C)=C1C3(C)C)[C@]1(OC(C)=O)CO[C@@H]1C[C@@H]2O` , test system: granulocyte-macrophage progenitor (GMPs). 109

Input O=C1CCC(N2C(=O)c3ccccc3C2=O)C(=O)N1 (centres unmarked) [thalidomide] 100

Okay, and `CC(=O)c1c(C)c2cnc(Nc3ccc(N4CCNCC4)cn3)nc2n(C2CCCC2)c1=O` ? 92.5

Please give the result for `CCc1cnn2c(NCc3ccc[n+]([O-])c3)cc(N3CCCC[C@H]3CCO)nc12` too. 87.6

====

Tested on: neutrophils (neutrophil-lin)
Test protocol: MLTA, Neut: concentration-response and QSP model fit
Format: cell-based, human
Assay conditions: Homo sapiens, Neutrophil, 144 h; dose 0.2 nM, 6 days, normalized to vehicle control; read-out: Neut normalized cell count
Measured endpoint: activity at 0.0002 µM (%)
Give the number; % is assumed, so skip it.

>>> reported("O=C1CCC(N2C(=O)c3ccccc3C2=O)C(=O)N1 (centres unmarked) [thalidomide]")
99.5
>>> reported("CC(=O)O[C@H]1C(=O)[C@@]2(C)[C@H]([C@H](OC(=O)c3ccccc3)[C@]3(O)C[C@H](OC(=O)[C@H](O)[C@@H](NC(=O)c4ccccc4)c4ccccc4)C(C)=C1C3(C)C)[C@]1(OC(C)=O)CO[C@@H]1C[C@@H]2O")
88.3
>>> reported("CC(=O)c1c(C)c2cnc(Nc3ccc(N4CCNCC4)cn3)nc2n(C2CCCC2)c1=O")
95.1
>>> reported("CCc1cnn2c(NCc3ccc[n+]([O-])c3)cc(N3CCCC[C@H]3CCO)nc12")
83.8
>>> reported("CC(=O)O[C@@]12CO[C@@H]1C[C@H](O)[C@@]1(C)C(=O)[C@H](O)C3=C(C)[C@@H](OC(=O)[C@H](O)[C@@H](NC(=O)OC(C)(C)C)c4ccccc4)C[C@@](O)([C@@H](OC(=O)c4ccccc4)[C@H]21)C3(C)C")
90.8

For `CN(C)C(=O)c1cc2cnc(Nc3ccc(N4CCNCC4)cn3)nc2n1C1CCCC1` , what is its reported activity at 0.0002 µM? 77.2

Same thing, different compound: `CCN1CCN(Cc2ccc(Nc3ncc(F)c(-c4cc(F)c5nc(C)n(C(C)C)c5c4)n3)nc2)CC1` 99.5

Okay, and `CS(=O)(=O)N1CCN(Cc2cc3nc(-c4cccc5[nH]ncc45)nc(N4CCOCC4)c3s2)CC1` ? 92.7
